# Test system: Abutilon theophrasti
# Test Name: Pre-emergence herbicidal activity, glasshouse pot test
# Type: in vivo
# Conditions Used: pre-emergence spray, rate 1000 g/ha, evaluated after 13 days, scale 0-5
# Experimental: Seeds of a variety of test species were sown in standard soil in pots. […] After 13 days, the test was evaluated (5=total damage to plant; 0=no damage to plant). […]
Threshold 2. ABUTH damage score, application pre-emergence below it: Met. ABUTH damage score, application pre-emergence at it or above: Not met.

Compound: CC1=C(Cl)C(=O)N(c2nccc(C(C)(C)C#N)n2)C1O (stereo not shown) [DF5]
Target Of Assay: Abutilon theophrasti
Class Name: Not met
--
Compound: CC1=C(Cl)C(=O)N(c2cc(C(F)(F)F)c(Br)cn2)C1O (stereo not shown) [AF57]
Target Of Assay: Abutilon theophrasti
Class Name: Met
--
Compound: COC1=C(C)C(O)N(c2cc(C(C)(C)C)c(Cl)nn2)C1=O (stereo not shown) [BI32]
Target Of Assay: Abutilon theophrasti
Class Name: Not met
--
Compound: CC1=C(Cl)C(=O)N(c2cc(C(C)(F)F)c(Cl)nn2)C1O (stereo not shown) [BF12]
Target Of Assay: Abutilon theophrasti
Class Name: Not met
--
Compound: CCC(CNC(=O)c1cnc(N2C(=O)C(OC)=C(C)C2O)cc1C)C(F)(F)F (stereo not shown) [AI37]
Target Of Assay: Abutilon theophrasti
Class Name: Not met
--
Compound: CCc1cc(N2C(=O)C(Cl)=C(C)C2O)ncc1Br (stereo not shown) [AF99]
Target Of Assay: Abutilon theophrasti
Class Name: Met
--
Compound: CC1=C(Cl)C(=O)N(c2cc(C(F)(F)F)c(-c3ccc(C#N)cc3)cn2)C1O (stereo not shown) [AF93]
Target Of Assay: Abutilon theophrasti
Class Name: Met
--
Compound: COc1cc(N2C(=O)C(Cl)=C(C)C2O)ncn1 (stereo not shown) [CF21]
Target Of Assay: Abutilon theophrasti
Class Name: Met
--
Compound: CC(C)C1=C(Cl)C(=O)N(c2cc(C(F)(F)F)ccn2)C1O (stereo not shown) [AF83]
Target Of Assay: Abutilon theophrasti
Class Name: Met
--
Compound: CC1=C(Cl)C(=O)N(c2ccc(C(C)(C)C#N)cn2)C1O (stereo not shown) [AF102]
Target Of Assay: Abutilon theophrasti
Class Name: Not met
--
Compound: CC1=C(Cl)C(=O)N(c2cc(C(C)(C)F)ccn2)C1O (stereo not shown) [AF31]
Target Of Assay: Abutilon theophrasti
Class Name: Not met
